Here, each record is paired with measured pEC50 data.
Molecular target: BRAF V599E (Homo sapiens, UniProt P15056, V600E)
Construct: purchased Invitrogen, Inc. (SelectScreen platform)
Sequence (P15056 416-766 V600E limits assumed): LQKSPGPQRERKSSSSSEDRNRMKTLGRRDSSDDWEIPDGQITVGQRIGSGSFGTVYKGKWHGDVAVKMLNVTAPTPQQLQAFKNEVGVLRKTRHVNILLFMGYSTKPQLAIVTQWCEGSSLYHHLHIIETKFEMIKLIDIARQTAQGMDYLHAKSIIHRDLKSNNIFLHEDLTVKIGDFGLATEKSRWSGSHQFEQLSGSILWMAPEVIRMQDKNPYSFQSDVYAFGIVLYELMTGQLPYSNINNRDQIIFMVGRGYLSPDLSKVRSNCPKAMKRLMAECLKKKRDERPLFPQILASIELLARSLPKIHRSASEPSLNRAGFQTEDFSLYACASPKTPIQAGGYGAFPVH
Experiment: SelectScreen kinase specificity survey
Assay type: biochemical
Conditions: estimated, abridged dose response curve, read-out: Kinase inhibitory activity EC50
Method: Testing of the compounds described in this invention was carried out using the SelectScreen™ platform from Invitrogen, Inc. (Carlsbad. Calif., USA) and the details of its performance are readily viewed via the web by linking to: http://www.invitrogen.com/downloads/SelectScrn_Brochure.pdf. Briefly, the approach is based on treating each specific kinase with a unique substrate and optical reporter system in the presence of ATP at 100 micromolar. […]
pEC50: −log10 of the molar value.
READOUT TYPE: pEC50

- CN(C)CCCNc1ccc2ncn3c4ccc5[nH]ncc5c4c(=O)c1c23: 5.93
- CCN(CC)CCNc1ccc2ncn3c4ccc(O)cc4c(=O)c1c23 [Symadex, reference compound]: 5.47

###

Here, each record is paired with measured pEC50 data.
Biological target: CLK3 (Homo sapiens, UniProt P49761)
Construct: purchased Invitrogen (SelectScreen platform)
Sequence (P49761 whole entry): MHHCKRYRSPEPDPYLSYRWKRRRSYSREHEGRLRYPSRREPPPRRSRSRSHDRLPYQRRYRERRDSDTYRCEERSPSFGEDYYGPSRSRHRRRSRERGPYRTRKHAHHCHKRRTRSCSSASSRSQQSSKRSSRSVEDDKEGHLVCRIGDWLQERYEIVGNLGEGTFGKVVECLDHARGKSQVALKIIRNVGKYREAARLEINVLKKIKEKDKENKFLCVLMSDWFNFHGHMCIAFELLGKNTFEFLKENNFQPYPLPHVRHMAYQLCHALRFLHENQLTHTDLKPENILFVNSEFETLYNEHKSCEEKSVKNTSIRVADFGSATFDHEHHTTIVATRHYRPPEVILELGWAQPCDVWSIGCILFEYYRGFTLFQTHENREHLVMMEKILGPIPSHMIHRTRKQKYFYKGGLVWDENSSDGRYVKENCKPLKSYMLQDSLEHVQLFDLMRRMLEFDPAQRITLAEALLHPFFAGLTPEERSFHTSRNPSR
Assay: SelectScreen kinase specificity survey
Assay type: biochemical
Details: estimated, abridged dose response curve, read-out: Kinase inhibitory activity EC50
pEC50: −log10 of the molar value.
READOUT TYPE: pEC50

• CN(C)CCCNc1ccc2ncn3c4ccc5[nH]ncc5c4c(=O)c1c23 = < 5.30
• CCN(CC)CCNc1ccc2ncn3c4ccc(O)cc4c(=O)c1c23 [Symadex, reference compound] = < 5.30

###

Molecular target: BaF3-ITD (Homo sapiens, UniProt P36888, cells depend on it, form not given)
Sequence (P36888 1-993): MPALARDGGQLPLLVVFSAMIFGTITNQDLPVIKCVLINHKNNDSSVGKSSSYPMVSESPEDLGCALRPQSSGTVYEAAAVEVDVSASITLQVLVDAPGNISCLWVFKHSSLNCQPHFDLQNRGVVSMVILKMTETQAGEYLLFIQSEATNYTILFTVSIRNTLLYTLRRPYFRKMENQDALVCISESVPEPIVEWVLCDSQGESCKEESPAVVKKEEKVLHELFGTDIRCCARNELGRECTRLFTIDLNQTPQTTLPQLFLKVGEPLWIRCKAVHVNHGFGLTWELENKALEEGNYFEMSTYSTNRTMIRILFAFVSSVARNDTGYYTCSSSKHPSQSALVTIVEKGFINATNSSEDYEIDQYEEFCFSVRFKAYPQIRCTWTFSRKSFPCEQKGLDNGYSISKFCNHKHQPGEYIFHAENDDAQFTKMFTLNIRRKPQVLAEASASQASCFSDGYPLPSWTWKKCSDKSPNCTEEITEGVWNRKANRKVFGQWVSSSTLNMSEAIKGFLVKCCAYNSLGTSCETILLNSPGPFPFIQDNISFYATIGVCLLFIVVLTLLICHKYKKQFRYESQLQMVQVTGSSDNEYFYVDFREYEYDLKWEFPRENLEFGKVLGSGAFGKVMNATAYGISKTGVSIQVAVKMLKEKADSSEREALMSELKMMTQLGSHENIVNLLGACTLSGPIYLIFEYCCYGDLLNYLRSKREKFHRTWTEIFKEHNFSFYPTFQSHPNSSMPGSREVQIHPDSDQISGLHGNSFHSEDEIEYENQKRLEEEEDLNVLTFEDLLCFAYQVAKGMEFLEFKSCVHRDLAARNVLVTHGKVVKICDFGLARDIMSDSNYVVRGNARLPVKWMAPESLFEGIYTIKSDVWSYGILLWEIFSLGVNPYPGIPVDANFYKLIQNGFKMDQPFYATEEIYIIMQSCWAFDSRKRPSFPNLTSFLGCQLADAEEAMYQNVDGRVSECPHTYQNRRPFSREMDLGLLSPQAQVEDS
Assay: MTS cellular proliferation assay
Type: cell-based
Settings: 72 hour incubation, read-out: Growth inhibitory activity (in vivo EC50 nM)
Lab note - cut at 40 nM for EC50: Condition met if strictly below, Condition not met if not.

* CN(C)CCCNc1ccc2ncn3c4ccc5[nH]ncc5c4c(=O)c1c23 | Condition met
* CCN(CC)CCNc1ccc2ncn3c4ccc(O)cc4c(=O)c1c23 [Symadex, reference compound] | Condition met
* CCN(CC)CCNc1ccc2ncn3c4ccc5[nH]ncc5c4c(=O)c1c23 | Condition met
* CN(C)c1ccc2ncn3c4ccc5[nH]ncc5c4c(=O)c1c23 | Condition not met
* CCN(CC)c1ccc2ncn3c4ccc5[nH]ncc5c4c(=O)c1c23 | Condition not met
* O=c1c2c(NCCCN3CCOCC3)ccc3ncn(c4ccc5[nH]ncc5c14)c32 | Condition met
* O=c1c2c(NCCN3CCOCC3)ccc3ncn(c4ccc5[nH]ncc5c14)c32 | Condition not met
* CNc1ccc2ncn3c4ccc5[nH]ncc5c4c(=O)c1c23 | Condition met
* CN(C)CCCCCNc1ccc2ncn3c4ccc5[nH]ncc5c4c(=O)c1c23 | Condition not met

###

Target: ZAP70 (Homo sapiens, UniProt P43403)
Sequence (P43403 whole entry): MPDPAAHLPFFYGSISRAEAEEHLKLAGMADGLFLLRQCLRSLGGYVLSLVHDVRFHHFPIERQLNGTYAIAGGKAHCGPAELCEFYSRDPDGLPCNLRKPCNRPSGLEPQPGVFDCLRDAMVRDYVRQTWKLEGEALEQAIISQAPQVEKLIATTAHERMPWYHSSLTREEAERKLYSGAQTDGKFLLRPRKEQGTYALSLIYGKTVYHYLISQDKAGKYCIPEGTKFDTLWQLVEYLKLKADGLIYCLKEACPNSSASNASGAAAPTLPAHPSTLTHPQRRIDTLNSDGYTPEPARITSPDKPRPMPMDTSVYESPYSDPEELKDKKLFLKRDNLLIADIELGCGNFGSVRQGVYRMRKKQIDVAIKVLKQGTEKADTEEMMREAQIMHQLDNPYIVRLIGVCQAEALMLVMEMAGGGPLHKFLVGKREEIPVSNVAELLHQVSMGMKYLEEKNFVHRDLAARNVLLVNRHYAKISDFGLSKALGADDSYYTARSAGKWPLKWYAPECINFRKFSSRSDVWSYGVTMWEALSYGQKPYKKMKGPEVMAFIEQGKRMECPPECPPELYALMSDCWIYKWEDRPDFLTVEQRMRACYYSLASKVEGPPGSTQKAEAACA
Experiment: SelectScreen kinase specificity survey
Conditions: estimated, abridged dose response curve, read-out: Kinase inhibitory activity EC50
READOUT TYPE: EC50

- CCN(CC)CCNc1ccc2ncn3c4ccc(O)cc4c(=O)c1c23 [Symadex, reference compound]: > 5 µM
- CN(C)CCCNc1ccc2ncn3c4ccc5[nH]ncc5c4c(=O)c1c23: > 5 µM

###

Target: PKN1 (PRK1) (Homo sapiens, UniProt Q16512)
Experiment: SelectScreen kinase specificity survey
Conditions: estimated, abridged dose response curve, read-out: Kinase inhibitory activity EC50
Here, each record is paired with measured EC50 data.
READOUT TYPE: EC50 (µM)

• CCN(CC)CCNc1ccc2ncn3c4ccc(O)cc4c(=O)c1c23 [Symadex, reference compound] = 4.75
• CN(C)CCCNc1ccc2ncn3c4ccc5[nH]ncc5c4c(=O)c1c23 = 1.39

###

Target: ITK (Homo sapiens)
Experiment: SelectScreen kinase specificity survey
Conditions: estimated, abridged dose response curve, read-out: Kinase inhibitory activity EC50
READOUT TYPE: EC50 (nM)

• CN(C)CCCNc1ccc2ncn3c4ccc5[nH]ncc5c4c(=O)c1c23 = 637

###

Biological target: DCAMKL2 (DCK2) (Homo sapiens, UniProt Q8N568)
Sequence (Q8N568 whole entry): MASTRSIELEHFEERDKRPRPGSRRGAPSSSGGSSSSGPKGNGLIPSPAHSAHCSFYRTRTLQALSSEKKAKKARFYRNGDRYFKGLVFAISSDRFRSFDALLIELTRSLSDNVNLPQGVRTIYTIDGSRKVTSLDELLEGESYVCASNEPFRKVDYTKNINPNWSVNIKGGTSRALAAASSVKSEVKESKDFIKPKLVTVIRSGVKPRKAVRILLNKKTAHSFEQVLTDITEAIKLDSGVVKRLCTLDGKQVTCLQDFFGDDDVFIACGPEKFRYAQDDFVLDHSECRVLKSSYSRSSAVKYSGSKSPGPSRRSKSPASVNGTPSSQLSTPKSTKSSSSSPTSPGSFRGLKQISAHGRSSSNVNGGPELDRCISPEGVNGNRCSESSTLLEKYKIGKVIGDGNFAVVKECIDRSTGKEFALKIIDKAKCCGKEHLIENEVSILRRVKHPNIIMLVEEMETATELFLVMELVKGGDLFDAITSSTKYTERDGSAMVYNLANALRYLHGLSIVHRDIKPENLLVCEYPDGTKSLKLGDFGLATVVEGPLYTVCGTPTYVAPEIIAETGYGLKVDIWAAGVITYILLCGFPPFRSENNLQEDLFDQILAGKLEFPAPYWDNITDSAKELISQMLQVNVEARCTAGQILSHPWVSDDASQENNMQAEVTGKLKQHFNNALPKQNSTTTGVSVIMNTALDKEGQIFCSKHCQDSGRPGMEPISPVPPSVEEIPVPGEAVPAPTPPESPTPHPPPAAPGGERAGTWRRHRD
Experiment: SelectScreen kinase specificity survey
Details: estimated, abridged dose response curve, read-out: Kinase inhibitory activity EC50
pEC50: −log10 of the molar value.
READOUT TYPE: pEC50

* CN(C)CCCNc1ccc2ncn3c4ccc5[nH]ncc5c4c(=O)c1c23 [Compound (IV)] | < 5.30
* CCN(CC)CCNc1ccc2ncn3c4ccc(O)cc4c(=O)c1c23 [Symadex, reference compound] | < 5.30

###

Here, each record is paired with measured pEC50 data.
Target: UniProt P04626
Sequence (P04626 23-1255): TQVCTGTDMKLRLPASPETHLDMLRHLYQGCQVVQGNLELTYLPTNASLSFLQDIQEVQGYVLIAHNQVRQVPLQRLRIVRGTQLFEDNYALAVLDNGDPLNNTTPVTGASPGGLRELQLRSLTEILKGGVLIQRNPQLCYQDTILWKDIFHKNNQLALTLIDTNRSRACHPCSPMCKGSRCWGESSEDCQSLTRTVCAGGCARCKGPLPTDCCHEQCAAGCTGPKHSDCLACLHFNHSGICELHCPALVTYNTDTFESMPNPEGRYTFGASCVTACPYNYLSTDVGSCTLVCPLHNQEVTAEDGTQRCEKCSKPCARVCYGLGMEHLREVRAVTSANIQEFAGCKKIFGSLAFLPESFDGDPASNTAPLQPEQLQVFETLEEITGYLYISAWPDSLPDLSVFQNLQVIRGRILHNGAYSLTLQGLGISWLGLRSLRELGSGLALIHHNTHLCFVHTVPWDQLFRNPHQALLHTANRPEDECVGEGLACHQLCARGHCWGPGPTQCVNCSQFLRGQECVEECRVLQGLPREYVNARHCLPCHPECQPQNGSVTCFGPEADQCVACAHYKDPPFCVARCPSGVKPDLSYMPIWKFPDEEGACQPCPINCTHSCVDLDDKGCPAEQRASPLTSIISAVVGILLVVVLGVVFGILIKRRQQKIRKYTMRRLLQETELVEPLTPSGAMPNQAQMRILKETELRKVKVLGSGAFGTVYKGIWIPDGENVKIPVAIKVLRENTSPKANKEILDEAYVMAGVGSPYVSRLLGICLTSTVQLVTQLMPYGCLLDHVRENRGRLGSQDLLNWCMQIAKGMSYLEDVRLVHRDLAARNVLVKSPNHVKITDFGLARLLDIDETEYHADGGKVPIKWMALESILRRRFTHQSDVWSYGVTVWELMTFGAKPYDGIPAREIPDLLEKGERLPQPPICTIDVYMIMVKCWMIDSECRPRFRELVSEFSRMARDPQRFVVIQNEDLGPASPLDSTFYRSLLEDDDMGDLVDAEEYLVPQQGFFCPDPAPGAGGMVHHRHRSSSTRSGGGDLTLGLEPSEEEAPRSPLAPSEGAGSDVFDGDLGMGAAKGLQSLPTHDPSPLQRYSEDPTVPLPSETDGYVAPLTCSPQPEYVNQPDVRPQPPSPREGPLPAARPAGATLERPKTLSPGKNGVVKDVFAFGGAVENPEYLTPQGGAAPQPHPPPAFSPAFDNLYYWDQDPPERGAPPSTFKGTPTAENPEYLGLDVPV
Assay: SelectScreen kinase specificity survey
Details: estimated, abridged dose response curve, read-out: Kinase inhibitory activity EC50
pEC50: −log10 of the molar value.
READOUT TYPE: pEC50

- CCN(CC)CCNc1ccc2ncn3c4ccc(O)cc4c(=O)c1c23 [Symadex, reference compound]: < 5.30
- CN(C)CCCNc1ccc2ncn3c4ccc5[nH]ncc5c4c(=O)c1c23: < 5.30

###

Molecular target: ALK (Homo sapiens)
Sequence (Q9UM73 19-1620): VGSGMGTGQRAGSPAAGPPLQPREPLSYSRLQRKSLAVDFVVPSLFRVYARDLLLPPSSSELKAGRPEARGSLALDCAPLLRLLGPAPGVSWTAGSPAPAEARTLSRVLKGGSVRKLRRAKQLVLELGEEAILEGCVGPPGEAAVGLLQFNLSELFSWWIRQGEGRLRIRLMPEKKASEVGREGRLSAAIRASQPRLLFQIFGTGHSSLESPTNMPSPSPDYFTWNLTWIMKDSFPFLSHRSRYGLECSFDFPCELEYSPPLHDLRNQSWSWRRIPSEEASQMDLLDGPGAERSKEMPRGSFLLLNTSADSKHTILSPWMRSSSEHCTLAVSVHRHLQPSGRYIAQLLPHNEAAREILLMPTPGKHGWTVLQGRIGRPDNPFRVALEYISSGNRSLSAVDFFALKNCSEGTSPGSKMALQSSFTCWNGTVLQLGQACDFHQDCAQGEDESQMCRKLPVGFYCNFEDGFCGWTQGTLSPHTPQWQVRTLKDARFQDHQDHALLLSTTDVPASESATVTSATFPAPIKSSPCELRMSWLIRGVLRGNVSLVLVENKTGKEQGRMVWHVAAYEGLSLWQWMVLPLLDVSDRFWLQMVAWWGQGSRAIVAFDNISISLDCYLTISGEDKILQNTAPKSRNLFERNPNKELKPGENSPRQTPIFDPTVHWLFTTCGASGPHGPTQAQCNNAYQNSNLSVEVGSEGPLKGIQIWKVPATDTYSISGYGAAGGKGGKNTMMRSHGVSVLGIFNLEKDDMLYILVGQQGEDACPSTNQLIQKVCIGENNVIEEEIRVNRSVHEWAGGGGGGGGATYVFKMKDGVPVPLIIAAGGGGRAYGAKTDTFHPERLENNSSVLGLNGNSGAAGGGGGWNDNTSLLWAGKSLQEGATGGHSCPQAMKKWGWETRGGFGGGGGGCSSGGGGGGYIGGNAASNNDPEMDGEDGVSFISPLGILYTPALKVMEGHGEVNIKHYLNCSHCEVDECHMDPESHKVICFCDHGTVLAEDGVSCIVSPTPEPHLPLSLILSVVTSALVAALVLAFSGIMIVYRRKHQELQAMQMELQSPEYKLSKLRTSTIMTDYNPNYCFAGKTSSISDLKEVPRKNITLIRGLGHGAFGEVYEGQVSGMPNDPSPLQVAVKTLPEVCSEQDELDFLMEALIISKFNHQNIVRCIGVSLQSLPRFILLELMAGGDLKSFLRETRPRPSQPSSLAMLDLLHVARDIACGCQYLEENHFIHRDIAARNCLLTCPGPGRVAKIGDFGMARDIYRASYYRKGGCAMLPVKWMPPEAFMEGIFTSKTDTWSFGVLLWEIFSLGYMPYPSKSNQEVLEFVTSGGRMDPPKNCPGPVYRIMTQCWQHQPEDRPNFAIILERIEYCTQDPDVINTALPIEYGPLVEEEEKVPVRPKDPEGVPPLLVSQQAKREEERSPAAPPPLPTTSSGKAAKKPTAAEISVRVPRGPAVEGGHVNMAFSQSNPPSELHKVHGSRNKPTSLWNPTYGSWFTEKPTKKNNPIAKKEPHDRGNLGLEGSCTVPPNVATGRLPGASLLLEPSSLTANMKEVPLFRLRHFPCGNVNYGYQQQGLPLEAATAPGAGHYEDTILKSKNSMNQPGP
Assay: SelectScreen kinase specificity survey
Conditions: estimated, abridged dose response curve, read-out: Kinase inhibitory activity EC50
READOUT TYPE: EC50 (µM)

• CN(C)CCCNc1ccc2ncn3c4ccc5[nH]ncc5c4c(=O)c1c23 = 4.63
• CCN(CC)CCNc1ccc2ncn3c4ccc(O)cc4c(=O)c1c23 [Symadex, reference compound] = 2.48

###

Target: FLT3 (Homo sapiens)
Construct: purchased Invitrogen (SelectScreen platform)
Assay: SelectScreen FLT3 kinase dose response assay
Format: biochemical
Conditions: dose response, 4 parameter Hill equation; ATP 100 micromolar; read-out: FLT3 Inhibition EC50
pEC50: −log10 of the molar value.
READOUT TYPE: pEC50

- O=c1c2c(NCCN3CCOCC3)ccc3ncn(c4ccc5[nH]ncc5c14)c32 [Compound (V)]: 7.52
- O=c1c2c(NCCCN3CCOCC3)ccc3ncn(c4ccc5[nH]ncc5c14)c32 [(X)]: 7.96
- c1ccc(-c2n[nH]c3c2oc2ccccc23)cc1 [GTP-14564, reference compound]: 7.59
- CN(C)c1ccc2ncn3c4ccc5[nH]ncc5c4c(=O)c1c23 [(IX)]: 8.05
- CNc1ccc2ncn3c4ccc5[nH]ncc5c4c(=O)c1c23 [(VII)]: 8.30

###

Target: FRAP1 (mTOR) (Homo sapiens)
Assay: SelectScreen kinase specificity survey
Settings: estimated, abridged dose response curve, read-out: Kinase inhibitory activity EC50
pEC50: −log10 of the molar value.
READOUT TYPE: pEC50

* CCN(CC)CCNc1ccc2ncn3c4ccc(O)cc4c(=O)c1c23 [Symadex, reference compound] | < 5.30
* CN(C)CCCNc1ccc2ncn3c4ccc5[nH]ncc5c4c(=O)c1c23 | < 5.30

###

Here, each record is paired with measured pEC50 data.
Target: TAOK2 (TAO1) (Homo sapiens, UniProt Q9UL54)
Sequence (Q9UL54 1-1235): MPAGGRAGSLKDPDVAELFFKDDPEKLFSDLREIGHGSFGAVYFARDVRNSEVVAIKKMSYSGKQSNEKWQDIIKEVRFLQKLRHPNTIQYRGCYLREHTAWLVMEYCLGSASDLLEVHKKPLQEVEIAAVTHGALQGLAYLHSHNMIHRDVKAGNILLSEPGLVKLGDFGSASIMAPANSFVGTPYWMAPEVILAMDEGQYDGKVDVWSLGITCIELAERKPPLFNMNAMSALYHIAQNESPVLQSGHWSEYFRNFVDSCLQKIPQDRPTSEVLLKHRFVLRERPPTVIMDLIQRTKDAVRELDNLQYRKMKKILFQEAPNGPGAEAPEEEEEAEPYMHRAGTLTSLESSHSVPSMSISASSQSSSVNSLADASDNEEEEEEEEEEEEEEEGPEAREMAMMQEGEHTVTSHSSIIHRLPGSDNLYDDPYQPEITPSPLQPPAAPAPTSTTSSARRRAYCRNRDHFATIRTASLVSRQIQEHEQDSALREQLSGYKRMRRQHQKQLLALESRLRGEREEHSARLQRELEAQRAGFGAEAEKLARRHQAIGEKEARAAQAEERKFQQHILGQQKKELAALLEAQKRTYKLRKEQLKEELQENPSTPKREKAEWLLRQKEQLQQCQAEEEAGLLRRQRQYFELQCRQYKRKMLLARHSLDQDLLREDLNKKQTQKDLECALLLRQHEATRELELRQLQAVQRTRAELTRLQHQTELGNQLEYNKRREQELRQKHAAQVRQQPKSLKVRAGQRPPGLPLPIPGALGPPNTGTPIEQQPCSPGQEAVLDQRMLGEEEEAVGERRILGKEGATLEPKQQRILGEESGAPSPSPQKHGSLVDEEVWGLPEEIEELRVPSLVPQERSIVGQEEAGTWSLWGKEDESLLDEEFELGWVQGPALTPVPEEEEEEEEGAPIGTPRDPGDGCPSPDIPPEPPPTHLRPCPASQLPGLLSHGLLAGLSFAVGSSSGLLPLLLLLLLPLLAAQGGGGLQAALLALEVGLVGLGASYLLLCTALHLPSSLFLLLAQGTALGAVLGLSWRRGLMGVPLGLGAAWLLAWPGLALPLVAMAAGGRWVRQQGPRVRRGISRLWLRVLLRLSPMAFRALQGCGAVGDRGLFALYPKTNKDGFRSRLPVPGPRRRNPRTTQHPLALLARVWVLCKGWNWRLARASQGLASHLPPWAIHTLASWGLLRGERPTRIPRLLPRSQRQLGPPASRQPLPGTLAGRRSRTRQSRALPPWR
Assay: SelectScreen kinase specificity survey
Conditions: estimated, abridged dose response curve, read-out: Kinase inhibitory activity EC50
pEC50: −log10 of the molar value.
READOUT TYPE: pEC50

* CN(C)CCCNc1ccc2ncn3c4ccc5[nH]ncc5c4c(=O)c1c23 | < 5.30
* CCN(CC)CCNc1ccc2ncn3c4ccc(O)cc4c(=O)c1c23 [Symadex, reference compound] | < 5.30

Cited source for all entries: patent US20100292231A1
